// EC50 lookup, one value per entry
target: TRPML2 (Homo sapiens, UniProt Q8IZK6); construct: expressed in transfected cells; test: Fluorescent TRPML2 assay (performed as for TRPML1, substituting the TRPML2 subtype); format: cell-based
Sequence (Q8IZK6 whole entry): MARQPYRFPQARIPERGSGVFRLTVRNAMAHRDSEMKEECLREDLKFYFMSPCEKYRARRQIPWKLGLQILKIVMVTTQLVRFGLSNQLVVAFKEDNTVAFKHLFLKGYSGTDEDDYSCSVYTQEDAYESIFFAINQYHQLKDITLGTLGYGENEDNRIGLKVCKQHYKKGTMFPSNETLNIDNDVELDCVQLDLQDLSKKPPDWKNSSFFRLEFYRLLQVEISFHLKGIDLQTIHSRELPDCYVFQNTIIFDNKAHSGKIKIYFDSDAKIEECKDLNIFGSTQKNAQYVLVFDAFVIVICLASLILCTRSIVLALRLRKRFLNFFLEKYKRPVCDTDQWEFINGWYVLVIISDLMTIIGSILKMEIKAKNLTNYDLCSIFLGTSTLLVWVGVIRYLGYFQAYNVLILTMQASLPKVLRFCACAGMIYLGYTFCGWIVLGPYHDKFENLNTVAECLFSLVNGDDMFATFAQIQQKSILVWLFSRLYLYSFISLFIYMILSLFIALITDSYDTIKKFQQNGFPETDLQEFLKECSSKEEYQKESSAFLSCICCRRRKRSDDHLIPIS

// solved cases for EC50 follow
{"molecular.string": "C[C@@H]1CN(c2ncnc3c2c(C2CC2)cn3-c2cccc(F)c2)[C@@H](C)CN1C(=O)OC(C)(C)C", "property.name": "EC50", "reported.measurement": "< 100 nM"}
{"molecular.string": "C[C@@H]1CN(c2ncnc3c2c(C(F)(F)F)cn3-c2cc(C#N)ccn2)[C@@H](C)CN1C(=O)OC1(C)CCC1", "property.name": "EC50", "reported.measurement": "< 100 nM"}
{"molecular.string": "C[C@@H]1CN(c2ncnc3c2c(C(F)(F)F)cn3-c2cc(C#N)ccn2)[C@H](C)CN1C(=O)OC(C)(C)C", "property.name": "EC50", "reported.measurement": "> 2000 nM"}
{"molecular.string": "C[C@@H]1CN(c2ncnc3c2c(-c2ccccc2F)cn3-c2cc(C(F)(F)F)ccn2)[C@@H](C)CN1C(=O)OC1(C)CC1", "property.name": "EC50", "reported.measurement": "100 to 500 nM"}

QUERY: Quick one: EC50 for "Cc1cn(-c2cccc(Cl)c2)c2ncnc(N3C[C@@H](C)N(C(=O)OC(C)(C)C)C[C@@H]3C)c12" ?
RESULT: 100 to 500 nM

QUERY: Quick one: EC50 for "Cc1cn(-c2cccc(C#N)c2)c2ncnc(N3CCN(C(=O)OC(C)(C)C)C[C@@H]3C)c12" ?
RESULT: < 100 nM

QUERY: Quick one: EC50 for "Cc1ccnc(-n2cc(C(F)(F)F)c3c(N4C[C@@H](C)N(C(=O)OC(C)(C)C)C[C@@H]4C)ncnc32)c1" ?
RESULT: 500 to 2000 nM

====

molecular target: TRPML1 (Homo sapiens, UniProt Q9GZU1); assay: Fluorescent TRPML1 assay (Fluo4-AM calcium fluorescence in doxycycline-induced HEK-293 Trex cells); assay type: cell-based; details: fluorescent calcium assay
Sequence (Q9GZU1 whole entry L15A/L16A/L577A/L578A, form open): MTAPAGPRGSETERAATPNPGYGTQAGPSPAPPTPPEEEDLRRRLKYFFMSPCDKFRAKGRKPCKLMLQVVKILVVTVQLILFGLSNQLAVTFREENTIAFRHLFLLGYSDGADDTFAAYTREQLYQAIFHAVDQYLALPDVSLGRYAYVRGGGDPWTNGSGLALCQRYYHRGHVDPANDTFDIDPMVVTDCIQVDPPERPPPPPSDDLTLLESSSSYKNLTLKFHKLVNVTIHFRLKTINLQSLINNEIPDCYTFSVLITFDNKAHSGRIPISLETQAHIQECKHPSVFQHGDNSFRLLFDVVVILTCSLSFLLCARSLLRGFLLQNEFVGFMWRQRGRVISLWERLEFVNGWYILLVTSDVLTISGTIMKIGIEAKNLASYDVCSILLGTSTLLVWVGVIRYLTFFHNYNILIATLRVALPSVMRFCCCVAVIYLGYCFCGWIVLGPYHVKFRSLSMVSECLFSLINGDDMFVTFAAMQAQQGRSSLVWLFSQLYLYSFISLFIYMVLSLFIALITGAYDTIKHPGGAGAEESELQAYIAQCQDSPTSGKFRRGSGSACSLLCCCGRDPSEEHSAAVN
pEC50: −log10 of the molar value.
property.name: pEC50

// solved cases for pEC50 follow
{"compound": "CC(C)(C)OC(=O)N1CCN(c2ncnc3c2c(C2CC2)cn3-c2cc(F)cc(F)c2)C[C@H]1C(F)F (single isomer, unassigned)", "pEC50": "5.70 to 6.30"}
{"compound": "C[C@H]1CN(C(=O)OC(C)(C)C)CCN1c1ncnc2c1c(N1CCN(C)CC1)cn2-c1cc(C#N)ccn1", "pEC50": "< 5.70"}

QUERY: Quick one: pEC50 for "C[C@@H]1CN(C(=O)OC(C)(C)C)CCN1c1ncnc2c1c(C1CCOCC1)cn2-c1cccc(F)c1" ?
RESULT: 6.30 to 7.00

====

// EC50 lookup, one value per entry
molecular target: TRPML3 (Homo sapiens, UniProt Q8TDD5); construct: expressed in transfected cells; assay: Fluorescent TRPML3 assay (performed as for TRPML1, substituting the TRPML3 subtype); type: cell-based; details: fluorescent calcium assay
Sequence (Q8TDD5 whole entry): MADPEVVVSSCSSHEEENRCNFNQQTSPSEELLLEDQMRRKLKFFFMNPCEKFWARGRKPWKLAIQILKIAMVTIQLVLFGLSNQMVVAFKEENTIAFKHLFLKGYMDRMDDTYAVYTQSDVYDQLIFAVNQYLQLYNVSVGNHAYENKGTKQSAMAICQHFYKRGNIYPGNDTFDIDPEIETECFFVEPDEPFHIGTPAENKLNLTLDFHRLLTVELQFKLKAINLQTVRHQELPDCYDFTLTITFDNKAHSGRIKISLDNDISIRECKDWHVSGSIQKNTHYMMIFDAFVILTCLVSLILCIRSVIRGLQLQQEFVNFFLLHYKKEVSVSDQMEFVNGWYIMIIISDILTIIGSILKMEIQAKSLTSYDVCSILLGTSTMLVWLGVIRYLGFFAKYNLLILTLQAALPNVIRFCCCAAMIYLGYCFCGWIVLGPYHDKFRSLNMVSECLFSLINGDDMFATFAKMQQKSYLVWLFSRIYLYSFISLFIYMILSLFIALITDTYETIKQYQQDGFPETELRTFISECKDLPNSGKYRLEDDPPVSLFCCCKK

// solved cases for EC50 follow
{"molecule": "C[C@H]1CN(C(=O)OC(C)(C)C)CCN1c1ncnc2c1c(C1=CCOCC1)cn2-c1cc(F)cc(F)c1", "property.name": "EC50", "reported.measurement": "100 to 500 nM"}
{"molecule": "C[C@@H]1CN(c2ncnc3c2c(C2CC2)cn3-c2cc(C#N)ccn2)CCN1C(=O)OCC(F)(F)F", "property.name": "EC50", "reported.measurement": "< 100 nM"}
{"molecule": "C[C@H]1CN(C(=O)OC(C)(C)C)CCN1c1ncnc2c1c(C1CC1)cn2C1CC(C#N)C1 (stereo partly shown)", "property.name": "EC50", "reported.measurement": "500 to 2000 nM"}

QUERY: Quick one: EC50 for "CCOC(=O)N1C[C@H](C)N(c2ncnc3c2c(-c2cnccn2)cn3-c2cccc(Cl)c2)C[C@H]1C" ?
RESULT: 500 to 2000 nM

====

molecular target: TRPML2 (Homo sapiens, UniProt Q8IZK6); construct: expressed in transfected cells; test: Fluorescent TRPML2 assay (performed as for TRPML1, substituting the TRPML2 subtype); type: cell-based; settings: fluorescent calcium assay
// EC50 lookup, one value per entry

{"molecular.string": "Cc1cncc(-n2cc(C3CC3)c3c(N4C[C@@H](C)N(C(=O)OC(C)(C)C)C[C@@H]4C)ncnc32)c1", "EC50": "500 to 2000 nM"}
{"molecular.string": "CCOC(=O)N1CCN(c2ncnc3c2c(-c2ccccn2)cn3-c2ccc(F)c(Cl)c2)CC1", "EC50": "> 2000 nM"}
{"molecular.string": "C[C@H]1CN(C(=O)OC(C)(C)C)CCN1c1ncnc2c1c(-c1ccccc1F)cn2-c1ccnnc1", "EC50": "> 2000 nM"}
{"molecular.string": "C[C@@H]1CN(c2ncnc3c2c(-n2cccn2)cn3-c2cccc(Cl)c2)CCN1C(=O)OC(C)(C)C", "EC50": "500 to 2000 nM"}
{"molecular.string": "C[C@@H]1CN(c2ncnc3c2c(C2CC2)cn3-c2cc(C#N)ccn2)CCN1C(=O)OC(C)(C)C", "EC50": "100 to 500 nM"}
{"molecular.string": "Cc1ccnc(-n2cc(-c3ccccc3F)c3c(N4C[C@@H](C)N(C(=O)OC(C)(C)C)C[C@@H]4C)ncnc32)c1", "EC50": "< 100 nM"}

For the next question, use this molecule.
QUERY: Under TRPML2 (Homo sapiens, UniProt Q8IZK6): EC50 value of "C[C@H]1CN(C(=O)OC(C)(C)C)CCN1c1ncnc2c1c(C(F)(F)F)cn2-c1cc(C#N)ccn1" ?
RESULT: < 100 nM

====

biological target: TRPML1 (Homo sapiens); assay: Fluorescent TRPML1 assay (Fluo4-AM calcium fluorescence in doxycycline-induced HEK-293 Trex cells); assay type: cell-based; conditions: fluorescent calcium assay
// EC50 lookup, one value per entry

{"molecular.string": "C[C@@H]1CN(c2ncnc3c2c(N2CCCC2)cn3-c2cc(F)cc(F)c2)CCN1C(=O)OC(C)(C)C", "EC50": "100 to 500 nM"}
{"molecular.string": "C[C@H]1CN(C(=O)OC(C)(C)C)CCN1c1ncnc2c1c(C1CC1)cn2-c1cncc(C#N)c1", "EC50": "100 to 500 nM"}
{"molecular.string": "C[C@@H]1CN(c2ncnc3c2c(-c2ccccc2F)cn3-c2ccccn2)[C@@H](C)CN1C(=O)OC(C)(C)C", "EC50": "< 100 nM"}

QUERY: Under TRPML1 (Homo sapiens): EC50 value of "C[C@@H]1CN(c2ncnc3c2c(C2CC2)cn3-c2cc(F)ccc2F)CCN1C(=O)OC(C)(C)C" ?
RESULT: < 100 nM

QUERY: Under TRPML1 (Homo sapiens): EC50 value of "C[C@H]1CN(C(=O)OC(C)(C)C)CCN1c1ncnc2c1c(C1CCOCC1)cn2-c1cccc(F)c1" ?
RESULT: 500 to 2000 nM

QUERY: Under TRPML1 (Homo sapiens): EC50 value of "C[C@@H]1CN(c2ncnc3c2c(-c2ccccc2F)cn3-c2ncc(C#N)s2)[C@@H](C)CN1C(=O)OC(C)(C)C" ?
RESULT: < 100 nM

QUERY: Under TRPML1 (Homo sapiens): EC50 value of "CC(C)(C)OC(=O)N1CCN(c2ncnc3c2c(C2CC2)cn3-c2cc(C#N)ccn2)C2(CC2)C1" ?
RESULT: < 100 nM

====

Biological target: TRPML1 (Homo sapiens, UniProt Q9GZU1)
Assay: Fluorescent TRPML1 assay (Fluo4-AM calcium fluorescence in doxycycline-induced HEK-293 Trex cells)
Type: cell-based
Settings: fluorescent calcium assay
Experimental: HEK-293 Trex cells were stably transfected with a construct consisting of the human coding sequence for TRPML1 cloned into the […] plasmid pCDNA5 T/O. Mutations were introduced into the TRPML1 sequence to facilitate expression on the cell surface (Silvia Vergarajauregui, Rosa Puertollano, Traffic. 2006 March; 7(3): 337-353). […] The Trypsin-EDTA is diluted with growth media, and cells are counted. […] EC50 values were calculated using a non-linear regression of Prism. […]
property.name: EC50

{"molecular.string": "C[C@@H]1CN(c2ncnc3c2c(N2CCC[C@H]2C)cn3-c2cccc(Cl)c2)CCN1C(=O)OC(C)(C)C", "property.name": "EC50", "reported.measurement": "500 to 2000 nM"}
{"molecular.string": "C[C@H]1CN(C(=O)OC(C)(C)C)CCN1c1ncnc2c1c(-c1cnccn1)cn2-c1cccc(C#N)c1", "property.name": "EC50", "reported.measurement": "500 to 2000 nM"}
{"molecular.string": "C[C@@H]1CN(C(=O)OC(C)(C)C)CCN1c1ncnc2c1c(N1CCCC1)cn2-c1cc(F)cc(F)c1", "property.name": "EC50", "reported.measurement": "100 to 500 nM"}
{"molecular.string": "CCN(CC)c1cn(-c2cc(C#N)ccn2)c2ncnc(N3CCN(C(=O)OC(C)(C)C)C[C@@H]3C)c12", "property.name": "EC50", "reported.measurement": "< 100 nM"}
{"molecular.string": "C[C@H]1CN(C(=O)OC(C)(C)C)CCN1c1ncnc2c1c(-c1cncnc1)cn2-c1cccc(Cl)c1", "property.name": "EC50", "reported.measurement": "100 to 500 nM"}
{"molecular.string": "CC(C)(C)OC(=O)N1CCN(c2nccc3c2c(C2CC2)cn3-c2ccc(Cl)cc2)CC1", "property.name": "EC50", "reported.measurement": "100 to 500 nM"}
{"molecular.string": "CC(C)(C)OC(=O)N1CCN(c2ncnc3c2c(-c2ccccn2)cn3-c2cccc(Cl)c2)CC1", "property.name": "EC50", "reported.measurement": "100 to 500 nM"}
{"molecular.string": "C[C@H]1CN(C(=O)OC(C)(C)C)CCN1c1ncnc2c1c(-c1nccnc1F)cn2-c1cccc(Cl)c1", "property.name": "EC50", "reported.measurement": "100 to 500 nM"}

For the next question, use this molecule.
QUERY: Quick one: EC50 for "COc1cncc(-n2cc(-c3ccccc3F)c3c(N4CCN(C(=O)OC(C)(C)C)CC4)ncnc32)c1" ?
RESULT: 100 to 500 nM

The origin of these recorded values is patent US20250136606A1.
